Origin of the recorded values: PubChem BioAssay

# protocol: inhibitors of Sendai virus-induced IRF3 signaling, primary screen, TLR/RLR signaling modifier project, cell-based, Sendai virus stimulus, luciferase, 10K MLSCN set (AID 602276);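 further: firefly luciferase from ISG56 promoter only with Renilla not read in this screen; 0% = Sendai virus plus DMSO and 100% = medium plus DMSO without virus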
# conditionDescription: HEK293 RL24 IRF3 luciferase reporter, at 10 µM, stronger effect = higher value
measuredParameter: inhibition (%)
Give a bare numeral; the unit % is implied.

• Cc1ccc(S(=O)(=O)c2cc3c(=O)n4ccccc4nc3n(CC3CCCO3)c2=N)cc1C (configuration not stated) = 13.6
• O=C(CN1C(=O)COc2ccccc21)N(Cc1cccnc1)Cc1ccccc1F = 15.9
• Cn1c(=O)c2nc(Cl)n(Cc3ccc(Cl)cc3Cl)c2n(C)c1=O = 21.4
• Cc1onc(-c2ccccc2Cl)c1C(=O)NCCn1c(C)cc2ccccc21 = 15.6
• Cc1nc2ccc(S(=O)(=O)NCC(=O)N3CCc4ccccc4C3)cc2s1 = -4.3
• O=C(COC(=O)c1cncc(Br)c1)NCCC1=CCCCC1 = 1.87

Query: Entry N#CC1=C(N)N(c2ccc(Oc3ccccc3)cc2)C(=O)C1 : reported inhibition = ?
Reply: 5.59

Query: Entry CC1CCCCC1NC(=O)CN1CCN(Cc2ccccc2Cl)C1=O (configuration not stated) : reported inhibition = ?
Reply: 10.1

Query: Entry Oc1ccc(Cl)cc1-c1cc(-c2ccccc2)n[nH]1 : reported inhibition = ?
Reply: -23.7

Query: Entry CN(C)C(=O)N1CCCC(C(=O)NCc2ccccc2)C1 (configuration not stated) : reported inhibition = ?
Reply: 40.6

Query: Entry CCCn1c(SCC(=O)Nc2ccccc2C(=O)OC)nc2c1c(=O)n(C)c(=O)n2C : reported inhibition = ?
Reply: 15.9

Query: Entry COc1ccc(S(=O)(=O)C(C#N)c2nc3ccccc3nc2N2CCCC(C)C2)cc1 (configuration not stated) : reported inhibition = ?
Reply: 13

Query: Entry O=C(CCCNS(=O)(=O)c1ccccc1)NCc1ccco1 : reported inhibition = ?
Reply: 12.9

Query: Entry Cc1cc(C)c2c(=O)n(CC(=O)NCCCN3CCN(c4ccccc4F)CC3)sc2n1 : reported inhibition = ?
Reply: 12

Query: Entry COCCN(C(=O)CCC(=O)Nc1ccccn1)C(C(=O)NC1CCCC1)c1ccc(OC)cc1 (configuration not stated) : reported inhibition = ?
Reply: 1.15

Query: Entry CC(CCc1ccccc1)NC(=O)C1CCCN(c2nnc(-n3cccc3)s2)C1 (configuration not stated) : reported inhibition = ?
Reply: 8.13

Query: Entry Cc1cc(=O)n2nc(N3CCCC(C(=O)N4CCc5ccccc54)C3)sc2n1 (configuration not stated) : reported inhibition = ?
Reply: 18.4

Query: Entry CCOC(=O)N1CCN(Cc2nc3c(c(=O)n(C)c(=O)n3C)n2Cc2ccccc2)CC1 : reported inhibition = ?
Reply: 9

Query: Entry Cc1cc(C(=O)CSc2nnc(-c3ccco3)o2)c(C)n1CC1COc2ccccc2O1 (configuration not stated) : reported inhibition = ?
Reply: 9.81

Query: Entry Cn1c(=O)c2c(ncn2CC(=O)OCC(=O)NC2CCCc3ccccc32)n(C)c1=O (configuration not stated) : reported inhibition = ?
Reply: 2.45

Query: Entry Cc1noc(C(=O)Nc2ccc3c(c2)OCO3)c1Cl : reported inhibition = ?
Reply: -21.3

Query: Entry COc1ccc(OC)c(S(=O)(=O)N2CCC(C(=O)NCc3ccccc3OC)CC2)c1 : reported inhibition = ?
Reply: 4.82
